Value source: the supplement of paper PMC7877785

ASSAY EXPLANATION: self-splicing fitness, log relative to wild type (ln ratio); higher = more splicing; Tetrahymena group I intron in knt gene, E. coli kanamycin selection, DiMSum; sequences stand for … in CUCUCU…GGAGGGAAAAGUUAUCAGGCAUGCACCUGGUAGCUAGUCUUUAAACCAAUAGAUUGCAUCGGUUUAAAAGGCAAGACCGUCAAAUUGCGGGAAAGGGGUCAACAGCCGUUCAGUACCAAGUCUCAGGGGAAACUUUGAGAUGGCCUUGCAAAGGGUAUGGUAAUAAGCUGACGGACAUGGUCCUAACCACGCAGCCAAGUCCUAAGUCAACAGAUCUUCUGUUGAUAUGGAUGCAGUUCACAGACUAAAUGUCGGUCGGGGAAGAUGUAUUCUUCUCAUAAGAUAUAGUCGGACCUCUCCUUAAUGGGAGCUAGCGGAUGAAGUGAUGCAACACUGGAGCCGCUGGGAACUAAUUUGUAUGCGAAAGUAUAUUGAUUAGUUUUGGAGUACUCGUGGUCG;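 also: selection with 25 µg/mL kanamycin versus none on LB agar overnight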
EXPERIMENTAL CONDITIONS: 30 °C
Cut-off -1 on self-splicing fitness (ln), inclusive. At or above means class 1; below means class 0.

1. AUUAAGCAAUAUUACGGUCC = class 1
2. AAUAAGCAAUAUUACGCUCA = class 1
3. ACCUAGCAAUAUUACGAUCA = class 0
4. ACAAAGCAAUAUUACGAACA = class 0
5. GGUGAGCAAUAUUACGAUGA = class 0
6. AGCCAGCAAUAUUACGACAC = class 0
7. GCUAAGCAAUAUUACGCGUA = class 0
8. AUGAAGCAAUAUUACGUACG = class 1

====

ASSAY EXPLANATION: self-splicing fitness, log relative to wild type (ln ratio); higher = more splicing; Tetrahymena group I intron in knt gene, E. coli kanamycin selection, DiMSum; sequences stand for … in CUCUCU…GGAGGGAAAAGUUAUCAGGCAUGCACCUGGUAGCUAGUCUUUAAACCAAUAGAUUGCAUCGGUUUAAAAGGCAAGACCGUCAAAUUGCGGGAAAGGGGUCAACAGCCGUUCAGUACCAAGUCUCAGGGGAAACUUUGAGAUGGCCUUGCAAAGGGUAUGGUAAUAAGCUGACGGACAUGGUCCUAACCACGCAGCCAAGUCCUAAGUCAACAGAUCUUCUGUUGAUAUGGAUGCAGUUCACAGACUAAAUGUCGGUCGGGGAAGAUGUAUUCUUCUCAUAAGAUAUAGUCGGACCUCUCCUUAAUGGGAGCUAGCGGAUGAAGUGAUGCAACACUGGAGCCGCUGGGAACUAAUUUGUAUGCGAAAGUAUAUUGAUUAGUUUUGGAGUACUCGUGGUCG
EXPERIMENTAL CONDITIONS: 37 °C
Cut-off -2 on self-splicing fitness (ln), inclusive. At or above means t; below means f.

1. AUGCAGCAAUAUUACGCUGC = f
2. GGGGAGCAAUAUUACGCAAU = t
3. ACGAAGCAAUAUUACGGUAA = t
4. ACUUAGCAAUAUUACGUAAG = t
5. AAACAGCAAUAUUACGGAAC = f
6. GGCCAGCAAUAUUACGCUGG = f
7. UGUGAGCAAUAUUACGUUGC = t
8. CGAUAGCAAUAUUACGAUAA = f
9. CCAAAGCAAUAUUACGCUAG = f
10. AACCAGCAAUAUUACGGUGC = t
11. AAACAGCAAUAUUACGAGGG = f
12. CUGUAGCAAUAUUACGUUUA = f
13. GUCCAGCAAUAUUACGAGUU = t
14. GUUGAGCAAUAUUACGAUAU = t
15. GGAAAGCAAUAUUACGGUUU = t
16. UCUCAGCAAUAUUACGGUCA = t
